# Tested on: NCI-H292 lung cancer cells
# PROTOCOL TEXT: FDA drug screening, complete media vs cholesterol-free media with simvastatin (TABLE 2)
# Type: cell-based, human
# DETAILS: NCI-H292 cells, FDA library drug in complete media
Structures can show the parent of a compound that is named as a salt.
ASSAY METRIC: Complete Media
Answer with a bare number; do not write a unit.

>>> numeric_value("Cc1onc(-c2c(F)cccc2Cl)c1C(=O)N[C@@H]1C(=O)N2[C@@H]1SC(C)(C)[C@@H]2C(=O)O [Flucloxacillin sodium]")
0.8297
>>> numeric_value("CCn1cc(C(=O)O)c(=O)c2cc(F)c(N3CCNC(C)C3)c(F)c21 (centres unmarked) [Lomefloxacin (hydrochloride)]")
0.934
>>> numeric_value("CNC(=O)c1cnn(-c2nc(N)c3ncn([C@@H]4O[C@H](CO)[C@@H](O)[C@H]4O)c3n2)c1")
1.055
>>> numeric_value("COc1ccc2cccc(CCNC(C)=O)c2c1")
0.8914
>>> numeric_value("CS(=O)(=O)Nc1cc2occ(NC=O)c(=O)c2cc1Oc1ccccc1")
1.252

Q: I'm curious: which Complete Media was measured for CO[C@@H]1[C@H](OC(=O)/C=C/C=C/C=C/C=C/C(=O)O)CC[C@]2(CO2)[C@H]1[C@@]1(C)O[C@@H]1CC=C(C)C tested on NCI-H292 lung cancer cells?
A: 1.08

Q: Tell me reported Complete Media for Cc1cc(NS(=O)(=O)c2ccc(N)cc2)nc(C)n1 , tested with NCI-H292 lung cancer cells.
A: 0.7862

Q: Recall the recorded Complete Media for Cc1cn([C@H]2C[C@H](N=[N+]=[N-])[C@@H](CO)O2)c(=O)[nH]c1=O with NCI-H292 lung cancer cells and state it.
A: 1.268

---

Below: a set of entries, each annotated with reported Cholesterol-free media + simvastatin (0.04 μM).
# System: NCI-H292 lung cancer cells
# PROTOCOL TEXT: FDA drug screening, complete media vs cholesterol-free media with simvastatin (TABLE 2)
# Assay type: cell-based, human
# DETAILS: NCI-H292 cells, FDA library drug in cholesterol-free media with simvastatin 0.04 μM
Structures can show the parent of a compound that is named as a salt. Numbered stars: 1 amine (or outer) side, 2 acyl side, 3 side chain; on linkers, the order of the positions; unused ones are H or OH. Bridge positions count the residues as written; N and C are the ends. Square brackets hold non-standard residues; d marks the D form. Peptide text beside a SMILES is read from it. * marks the point of attachment. hTyr(3S-OH,4S-OH,3'-OSO3H) = N[C@H](C(=O)O)[C@H](O)[C@@H](O)c1ccc(O)c(OS(=O)(=O)O)c1; Orn(4R-OH,5R-OH) = O=C([C@H](C[C@@H](O)[C@@H](O)N[*:3])N[*:1])[*:2]; Pro(3S-OH,4S-Me) = C[C@H]1CN[C@H](C(=O)O)[C@H]1O; X1 = CCCCCOc1ccc(-c2cc(-c3ccc(C(=O)*)cc3)no2)cc1; Gln(3R-OH) = NC(=O)C[C@@H](O)[C@H](N)C(=O)O; Hyp = O=C(O)[C@@H]1C[C@@H](O)CN1
The reply should be a number, written without any unit.

Field: example entries. Status: answers known.
>>> numeric_value("Cn1c(=O)c2c(ncn2CC2OCCO2)n(C)c1=O")
1.302
>>> numeric_value("C[C@H](N[C@@H](CCc1ccccc1)C(=O)O)C(=O)N1CCC[C@H]1C(=O)O.O.O [Enalaprilat (dihydrate)]")
1.635
>>> numeric_value("O=C1CN2Cc3c(ccc(Cl)c3Cl)N=C2N1 [Anagrelide (hydrochloride)]")
1.221
>>> numeric_value("O=C1Nc2ccccc2/C1=C1/Nc2ccccc2C1=O")
0.8483
>>> numeric_value("CN1[C@@H](CC(=O)c2ccccc2)CCC[C@H]1C[C@H](O)c1ccccc1 [Lobeline (hydrochloride)]")
1.408

Q: Suppose we examine the compound C[C@]12CC[C@H](O)CC1=CC[C@@H]1[C@@H]2CC[C@]2(C)C(c3cccnc3)=CC[C@@H]12 ; what Cholesterol-free media + simvastatin (0.04 μM) value has been reported?
A: 1.907

Q: Give its Cholesterol-free media + simvastatin (0.04 μM) value. Item: CCCCCOc1ccc(-c2cc(-c3ccc(C(=O)N[C@H]4C[C@@H](O)[C@@H](O)NC(=O)[C@@H]5[C@@H](O)[C@@H](C)CN5C(=O)[C@H]([C@H](O)CC(N)=O)NC(=O)[C@H]([C@H](O)[C@@H](O)c5ccc(O)c(OS(=O)(=O)O)c5)NC(=O)[C@@H]5C[C@@H](O)CN5C(=O)[C@H]([C@@H](C)O)NC4=O)cc3)no2)cc1 [Micafungin (sodium)] (X1-[Orn(4R-OH,5R-OH)]T[Hyp][hTyr(3S-OH,4S-OH,3'-OSO3H)][Gln(3R-OH)][Pro(3S-OH,4S-Me)]; lactam 1-C)
A: 2.204

Q: What measured Cholesterol-free media + simvastatin (0.04 μM) goes with CCCCCN(C)CCC(O)(P(=O)(O)O)P(=O)(O)O [Ibandronate (Sodium Monohydrate)] ?
A: 1.077

Q: Cholesterol-free media + simvastatin (0.04 μM) lookup needed for COC(=O)N[C@H](C(=O)N1CCC[C@H]1c1nc(-c2ccc(-c3ccc(-c4c[nH]c([C@@H]5CCCN5C(=O)[C@@H](NC(=O)OC)C(C)C)n4)cc3)cc2)c[nH]1)C(C)C [Daclatasvir (dihydrochloride)] , thanks.
A: 1.149
